tgt: T1, GST 택(tag)이 달린 IL-33 (human, UniProt O95760 112-270)
T1 construct: also called GST-IL-33; 재조합 GST-IL-33; not shown: Glutathione S-transferase (GST) tag; It is N-terminal, since stop codons pla
T1 sequence: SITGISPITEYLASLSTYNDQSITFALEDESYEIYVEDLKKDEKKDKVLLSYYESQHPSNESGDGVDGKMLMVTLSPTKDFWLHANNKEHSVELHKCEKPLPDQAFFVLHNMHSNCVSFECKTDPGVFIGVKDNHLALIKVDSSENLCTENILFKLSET
procedure_summary: ELISA, antigen fixed and scFv titrated
pKd values, listed per item
pKd (log units): -log10 of the concentration in mol/L.

Please review the entries below; each comes with its answer.
[
  {
    "binder": "C2_2A10 (scFv, scFv clone from a synthetic human scFv phage library; also called Anti-IL-33 scFv C2_2A10) scFv: EVQLLESGGGLVQPGGSLRLSCAASGFTFSSYYMSWVRQAPGKGLEWVSAISPGSSNKYYADSVKGRFTISRDNSKNTLYLQMNSLGAEDTAVYYCAKLLTGFDYWGQGTLVTVSSGGGGSGGGGSGGGGSQSVLTQPPSASGTPGQRVTISCSGSSSNIGNNAVSWYQQLPGTAPKLLIYDDNHRPSGVPDRFSGSKSGTSASLAISGLRSEDEADYYCGTWDSSLSAYVFGGGTKLTVLGQAGQHHHHHHGAYPYDVPDYAS",
    "measurement_type": "pKd",
    "reported_value": 7.24
  },
  {
    "binder": "C2_2H5 (scFv, scFv clone from a synthetic human scFv phage library; also called Anti-IL-33 scFv C2_2H5) scFv: EVQLLESGGGLVQPGGSLRLSCAASGFTFSSYYMSWVRQAPGKGLEWVSAISPGSSNKYYADSVKGQFTISRDNSKNTLYLQMNSLRAEDTAVYYCAKLSQSFDYWGQGTLVTVSSGGGGSGGGGSGGSGSQSVLTQPPSASGTPGQRVTISCTGSSSNIGNNGISWYQQLPGTAPKLLIYDNSHRPSGVPDRFSGSKSGTSASLAISGLRSEDETDYYCASWDSSLSGYVFGGGTKLTVLGQAGQHHHHHHGAYPYDVPDYAS",
    "measurement_type": "pKd",
    "reported_value": 7.51
  },
  {
    "binder": "C1_1E1 (scFv, scFv clone from a synthetic human scFv phage library; also called Anti-IL-33 scFv C1_1E1) scFv: EVQLLESGGGLVQPGGSLRLSCAASGFTFSSYYMSWVRQAPGKGLEWVSAISPGSSNKYYADSVKGRFTISRDNSKNTLYLQMNSLRAEDTAVYYCAKLTSAFDYWGQGTLVTVSSGGGDSGGGGSGGGGSQSVLTQPPSASGTPGQRVTISCTGSSSNIGSNDVTWYQQLPGTAPKLLIYSDNKRPSGVPDRFSGSKSGTSASLAISGLRSEEEADYYCGAWDSSLSGYVFGGGTKLTVLGQAGQHHHHHHGAYPYDVPDYAS",
    "measurement_type": "pKd",
    "reported_value": 7.32
  }
]

Query binder follows.
Query :: Input C2_1D5 (scFv, scFv clone from a synthetic human scFv phage library; also called Anti-IL-33 scFv C2_1D5) scFv: EVQLLESGGGLVQPGGSLRLSCAASGFTFSSYYMSWVRQAPGKGLEWVSAISPGSSNKYYADSVKGRFTISRDNSKNTLYLQMNSLRAEDTAVYYCARLLSAFDYWGQGTLVTVSSGGGGSGGGGSGGGGSQSVLTQPPSASGTPGQRVTISCSGSSSNIGSNDVSWYQQLPGTAPKLLIYSDSNRPSGVPDRFSGSKSGTSASLAISGLRSEDEADYYCGAWDSSLSGYVFGGGTKLTVLGQAGQHHHHHHGAYPYDVPDYAS , output reported pKd.
Result :: 7.44
